Entries and their inhibition
measuredTarget: Proteasome Macropain subunit MB1 (Homo sapiens) (UniProt P28074)
Sequence (whole entry): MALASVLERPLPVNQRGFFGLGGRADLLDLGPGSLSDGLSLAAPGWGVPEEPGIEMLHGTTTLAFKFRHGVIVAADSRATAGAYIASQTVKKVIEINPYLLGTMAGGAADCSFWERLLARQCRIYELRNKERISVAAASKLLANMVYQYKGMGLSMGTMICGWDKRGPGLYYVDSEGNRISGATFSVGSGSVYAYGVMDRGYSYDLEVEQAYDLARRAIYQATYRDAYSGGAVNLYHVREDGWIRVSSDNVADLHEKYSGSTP
testDescription: Inhibition of chymotrypsin-like activity of 20S human proteasome assessed as […] at 25 ug/ml using Promega proteasome-Glo-3 substrate incubated for 15 mins by luminescence assay

Look over these answered cases.
smi: O=c1c2ccccc2c(-c2ccc(OCCCC[P+](c3ccccc3)(c3ccccc3)c3ccccc3)cc2)nn1-c1ccccc1
inhibition: 99.5%
//
smi: CCN(CC)c1ccc(-n2nc(-c3ccc(OCCCCN4CCCC4)cc3)c3ccccc3c2=O)cc1
inhibition: 13.2%
//
smi: O=c1c2ccccc2c(-c2ccc(OCCCC[P+](c3ccccc3)(c3ccccc3)c3ccccc3)cc2)nn1CC1CC1
inhibition: 48.2%
//
smi: CCN(CC)c1ccc(-n2nc(-c3ccc(OCCCC[N+](CC)(CC)CC)cc3)c3ccccc3c2=O)cc1
inhibition: 10.3%
//
smi: CCN(CC)c1ccc(-n2nc(-c3ccc(OCCCCN4CCCCC4)cc3)c3ccccc3c2=O)cc1
inhibition: 8%
//
smi: O=c1c2ccccc2c(-c2ccc(OCCCC[P+](c3ccccc3)(c3ccccc3)c3ccccc3)cc2)nn1Cc1ccccc1
inhibition: 80.9%

Please examine the following record next.
Entry O=c1c2ccccc2c(-c2ccc(OCCCC[P+](c3ccccc3)(c3ccccc3)c3ccccc3)cc2)nn1-c1cccs1 , inhibition reported as 93.2%

* * *

measuredTarget: Proteasome Macropain subunit MB1 (Homo sapiens)
testDescription: Inhibition of chymotrypsin-like activity of 20S human proteasome assessed as […] at 25 ug/ml using Promega proteasome-Glo-3 substrate incubated for 15 mins by luminescence assay
Active and inactive are the calls of the source. No cut-off for these calls is given here.
metricName: inhibition

smi: CCN(CC)c1ccc(-n2nc(-c3ccc(OCCCC[n+]4ccn(C)c4)cc3)c3ccccc3c2=O)cc1
metricName: inhibition
result: 5.8%
//
smi: O=c1c2ccccc2c(-c2ccc(OCCCC[P+](c3ccccc3)(c3ccccc3)c3ccccc3)cc2)nn1-c1ccc2ccccc2c1
metricName: inhibition
result: 98.7%
//
smi: Cn1nc(-c2ccc(OCCCC[P+](c3ccccc3)(c3ccccc3)c3ccccc3)cc2)c2ccccc2c1=O
metricName: inhibition
result: inactive
//
smi: CCN(CC)c1ccc(-n2nc(-c3ccc(OCCCCN4CCOCC4)cc3)c3ccccc3c2=O)cc1
metricName: inhibition
result: 5.1%
//
smi: CC(C)Cn1nc(-c2ccc(OCCCC[P+](c3ccccc3)(c3ccccc3)c3ccccc3)cc2)c2ccccc2c1=O
metricName: inhibition
result: 52.4%
//
smi: CCN(CC)c1ccc(-n2nc(-c3ccc(OCCCC[P+](c4ccccc4)(c4ccccc4)c4ccccc4)cc3)c3ccccc3c2=O)cc1
metricName: inhibition
result: 99.1%

Per the records, this molecule ( CCN(CC)c1ccc(-n2nc(-c3ccc(OCCCCP(c4ccccc4)c4ccccc4)cc3)c3ccccc3c2=O)cc1 ) has inhibition equal to 19.6%

// inhibition value for CCN(CC)c1ccc(-n2nc(-c3ccc(OCCCC[P+](C4CCCCC4)(C4CCCCC4)C4CCCCC4)cc3)c3ccccc3c2=O)cc1 : 98.5%

Documented inhibition of CCn1nc(-c2ccc(OCCCC[P+](c3ccccc3)(c3ccccc3)c3ccccc3)cc2)c2ccccc2c1=O : inactive

For this molecule ( O=c1c2ccccc2c(-c2ccc(OCCCC[P+](c3ccccc3)(c3ccccc3)c3ccccc3)cc2)nn1CC1CCC1 ), measured inhibition is 70.5%

* * *

measuredTarget: Proteasome Macropain subunit MB1 (Homo sapiens, UniProt P28074)
testDescription: Inhibition of chymotrypsin-like activity of 20S human proteasome assessed as […] at using Promega proteasome-Glo-3 substrate incubated for 15 mins by luminescence assay
Listing of recorded pIC50 by entry.
Scale: pIC50 equals -log10([C]), with [C] in mol/L.

smi: CCN(CC)c1ccc(-n2nc(-c3ccc(OCCCC[P+](c4ccccc4)(c4ccccc4)c4ccccc4)cc3)c3ccccc3c2=O)cc1
metricName: pIC50
result: 4.99

Now, please, on to the next compound.
Value (pIC50, Proteasome Macropain subunit MB1 (Homo sapiens, UniProt P28074)) for record O=c1c2ccccc2c(-c2ccc(OCCCC[P+](c3ccccc3)(c3ccccc3)c3ccccc3)cc2)nn1CC1CCCCC1 = 4.79

* * *

measuredTarget: Proteasome Macropain subunit MB1 (Homo sapiens)
testDescription: Inhibition of chymotrypsin-like activity of 20S human proteasome assessed as […] at 25 ug/ml using Promega proteasome-Glo-3 substrate incubated for 15 mins by luminescence assay
Label rule, in plain words: inhibition of 40% and up is 1.0, under 40% is 0.0.

Has CCCCn1nc(-c2ccc(OCCCC[P+](c3ccccc3)(c3ccccc3)c3ccccc3)cc2)c2ccccc2c1=O a recorded inhibition greater than or equal to 40%? 0.0

inhibition >= 40% for O=c1c2ccccc2c(-c2ccc(OCCCC[P+](c3ccccc3)(c3ccccc3)c3ccccc3)cc2)nn1CC1CCCCC1 ? 1.0

Hello, I need to know if CCN(CC)c1ccc(-n2nc(-c3ccc(OCCCC[n+]4ccccc4)cc3)c3ccccc3c2=O)cc1 has measured inhibition not below 40%. Thanks! 0.0

Answer whether inhibition of CNc1ccc(-n2nc(-c3ccc(OCCCC[P+](c4ccccc4)(c4ccccc4)c4ccccc4)cc3)c3ccccc3c2=O)cc1 is greater than or equal to 40%. 1.0

# bool: inhibition of CCCn1nc(-c2ccc(OCCCC[P+](c3ccccc3)(c3ccccc3)c3ccccc3)cc2)c2ccccc2c1=O >= 40% 0.0

* * *

measuredTarget: Proteasome Macropain subunit MB1 (Homo sapiens, UniProt P28074)
testDescription: Inhibition of chymotrypsin-like activity of 20S human proteasome assessed as […] at using Promega proteasome-Glo-3 substrate incubated for 15 mins by luminescence assay
Collected IC50 values appear next to each entry.
The reply should be a number in µM, with the unit left off.

Worked examples follow.
smi: O=c1c2ccccc2c(-c2ccc(OCCCC[P+](c3ccccc3)(c3ccccc3)c3ccccc3)cc2)nn1-c1cccs1
IC50, µM: 17.6

smi: O=c1c2ccccc2c(-c2ccc(OCCCC[P+](c3ccccc3)(c3ccccc3)c3ccccc3)cc2)nn1CC1CC1
IC50, µM: 23

smi: CC(C)Cn1nc(-c2ccc(OCCCC[P+](c3ccccc3)(c3ccccc3)c3ccccc3)cc2)c2ccccc2c1=O
IC50, µM: 26

smi: O=c1c2ccccc2c(-c2ccc(OCCCC[P+](c3ccccc3)(c3ccccc3)c3ccccc3)cc2)nn1CC1CCC1
IC50, µM: 21.5

smi: O=c1c2ccccc2c(-c2ccc(OCCCC[P+](c3ccccc3)(c3ccccc3)c3ccccc3)cc2)nn1-c1ccccc1
IC50, µM: 9.88

smi: CCN(CC)c1ccc(-n2nc(-c3ccc(OCCCC[P+](C4CCCCC4)(C4CCCCC4)C4CCCCC4)cc3)c3ccccc3c2=O)cc1
IC50, µM: 13.3

smi: CNc1ccc(-n2nc(-c3ccc(OCCCC[P+](c4ccccc4)(c4ccccc4)c4ccccc4)cc3)c3ccccc3c2=O)cc1
IC50, µM: 14.2

smi: O=c1c2ccccc2c(-c2ccc(OCCCC[P+](c3ccccc3)(c3ccccc3)c3ccccc3)cc2)nn1-c1ccc2ccccc2c1
IC50, µM: 13.8

// switching to the query compound
Short answer for O=c1c2ccccc2c(-c2ccc(OCCCC[P+](c3ccccc3)(c3ccccc3)c3ccccc3)cc2)nn1Cc1ccccc1 : IC50 was 11.9

Attribution: ChEMBL document CHEMBL3797130
